All figures here come from PubChem BioAssay (NCATS).

Tested on: Hek293T
test.protocol: Primary qHTS to identify gynecologic anti-cancer compounds using libraries of approved drugs and bioactive compounds (AID 1345084); further: on the % scale 0 is the no-effect control and ±100 the full control effect; nearly all actives have a fitted effect of over 55% in size
condition.description: Gynecologic cancer cell panel viability, ATPlite luminescence, 48 h, control line for the selectivity index; series mostly up to 57.5 µM
Inconclusive results are not listed. Activity calls are given as the source filed them. The call rests on the fitted dose curve; in most records, active means well fitted cell-killing curve with a large enough effect; inconclusive means small, poorly fitted or top-dose-only effect, or effect the other way; inactive means flat fitted curve, though single readings scatter.

| compound | activity change, negative = cytotoxicity |
| --- | --- |
| CC(=O)O[C@H]1[C@H](O[C@H]2CC[C@]34C[C@]35CC[C@]3(C)[C@@H]([C@@]6(C)CC[C@@H](C(C)(C)O)O6)[C@@H](O)C[C@@]3(C)[C@@H]5C[C@H](O[C@@H]3O[C@H](CO)[C@@H](O)[C@H](O)[C@H]3O)[C@H]4C2(C)C)OC[C@@H](OC(C)=O)[C@@H]1O | inactive |
| Fc1ccccc1-c1nc2ccn(Cc3ccc(-c4ccc(C(F)(F)F)cc4C(F)(F)F)nn3)cc-2n1 | inactive |
| CC(C)=CCc1c(O)cc2oc3cc(C)cc(O)c3c2c1C | inactive |
| C/C=C(\C)C(=O)OC[C@H]1O[C@@H](O[C@H]2[C@@H](O[C@H]3O[C@H](COC(=O)/C(C)=C/C)[C@@H](O)[C@H](O)[C@H]3O[C@@H]3O[C@H](CO)[C@@H](O)[C@H](OC(=O)/C(C)=C/C)[C@H]3O)O[C@H](COC(=O)/C(C)=C/C)[C@@H](O)[C@@H]2O)[C@H](O)[C@@H](O)[C@@H]1O | 8.78% [at 11.6 µM] (inactive) |
| C=C[C@]1(C)C[C@@H](OC(=O)CSC2C[C@H]3CC[C@@H](C2)N3C)[C@]2(C)[C@H](C)CC[C@]3(CCC(=O)[C@H]32)[C@@H](C)[C@@H]1O (stereo not given in full) | inactive |
